Data provenance: PubChem BioAssay AID1963826

system: 926638-142-R-J1-PDC complex spheroid viability; assay: Anticancer human tumor 926638-142-R-J1-PDC patient-derived endometrial carcinoma cell line growth inhibition [POLQ]; settings: second compound 0.1 µM; first compound 3.16 µM; stronger effect = lower value;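 further: spheroids exposed to drugs for one week before readout; percent viability relative to DMSO vehicle control wells set as 100%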
parameter measured: viability, T/C (%)
Give just the numeric value; % need not be written.

Challenge: Which value of viability, T/C has been reported for COc1cc2cc(C(=O)CCC(=O)O)sc2cc1OC + Cc1cccc(N(C)C(=O)C2C(O)CCN2c2nc(C)cc(C(F)(F)F)c2C#N)c1 in the records?
Response given: 83.2

Challenge: // viability, T/C lookup, key: CC(C)n1c(=O)n(C)c2cnc3cc(F)c(-c4ccc(OCCCN5CCCCC5)nc4)cc3c21 + Cc1cccc(N(C)C(=O)C2C(O)CCN2c2nc(C)cc(C(F)(F)F)c2C#N)c1
Response given: 79.5

Challenge: // returns reported viability, T/C for input CNCc1ccc(-c2[nH]c3cc(F)cc4c3c2CCNC4=O)cc1 + COC1C(OC(N)=O)C(O)C(Oc2ccc3c(O)c(NC(=O)c4ccc(O)c(CC=C(C)C)c4)c(=O)oc3c2C)OC1(C)C
Response given: 80.1

Challenge: Return reported viability, T/C; argument: CNCc1ccc(-c2[nH]c3cc(F)cc4c3c2CCNC4=O)cc1 + Nc1ccc(C#CCN(C(=O)Cc2ncc(C(F)(F)F)cc2C(F)(F)F)c2ccc(F)cc2)nn1
Response given: 101

Challenge: Any idea what viability, T/C was measured for CCCS(=O)(=O)Nc1ccc(F)c(C(=O)c2c[nH]c3ncc(-c4ccc(Cl)cc4)cc23)c1F + COC1C(OC(N)=O)C(O)C(Oc2ccc3c(O)c(NC(=O)c4ccc(O)c(CC=C(C)C)c4)c(=O)oc3c2C)OC1(C)C ?
Response given: 91.3

Challenge: Entry under review: CC1COCCN1c1cc(C2(S(C)(=N)=O)CC2)nc(-c2ccnc3[nH]ccc23)n1 (stereo unspecified) + Nc1ccc(C#CCN(C(=O)Cc2ncc(C(F)(F)F)cc2C(F)(F)F)c2ccc(F)cc2)nn1 . Reported viability, T/C?
Response given: 63.6

Challenge: May I ask what viability, T/C has been recorded for COc1cc2cc(C(=O)CCC(=O)O)sc2cc1OC + COC1C(OC(N)=O)C(O)C(Oc2ccc3c(O)c(NC(=O)c4ccc(O)c(CC=C(C)C)c4)c(=O)oc3c2C)OC1(C)C ?
Response given: 94.3

Challenge: Field request: viability, T/C | item: COc1cc(C2c3cc4c(cc3C(OC3OC5COC(C)OC5C(O)C3O)C3COC(=O)C23)OCO4)cc(OC)c1O (stereo unspecified) + COC1C(OC(N)=O)C(O)C(Oc2ccc3c(O)c(NC(=O)c4ccc(O)c(CC=C(C)C)c4)c(=O)oc3c2C)OC1(C)C
Response given: 57.5

Challenge: Given the molecule O=c1[nH]cc(F)c(=O)[nH]1 + COC1C(OC(N)=O)C(O)C(Oc2ccc3c(O)c(NC(=O)c4ccc(O)c(CC=C(C)C)c4)c(=O)oc3c2C)OC1(C)C , what is its reported viability, T/C?
Response given: 103

Challenge: Tell me the measured viability, T/C of CCc1cc2c(N3CCc4c(cc(Cn5ccnc5)cc4-c4cn(C)nc4C(F)(F)F)C3=O)ccnc2c(OC)n1 + Nc1ccc(C#CCN(C(=O)Cc2ncc(C(F)(F)F)cc2C(F)(F)F)c2ccc(F)cc2)nn1 , please.
Response given: 36.8

Challenge: Report viability, T/C for O=C(c1cc(Cc2n[nH]c(=O)c3ccccc23)ccc1F)N1CCN(C(=O)C2CC2)CC1 + Cc1cccc(N(C)C(=O)C2C(O)CCN2c2nc(C)cc(C(F)(F)F)c2C#N)c1 please.
Response given: 77.6
